Origin of values: PubChem BioAssay

test: RAM signaling pathway blockade in yeast – S. cerevisiae, Pdr1DBD-CYC8 efflux-inhibited sensitized strain, primary screen (AID 1298);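 note: 0% = DMSO untreated cells without growth and 100% = 10 µM 1-NA-PP1 full growth; higher means more yeast growth rescued from 5-FOA killing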; settings: S. cerevisiae cbk1-as DSE1-URA3 strain, 5-FOA growth OD615, 2 d; at 50 µM; stronger effect = higher value
Please go through the items and note down their RAM network inhibition.
Give bare numbers, in %.

COc1ccc(CCNC(=O)c2c(O)c3c([nH]c2=O)CCCC3)cc1 = 4.09

Your task in this section: give RAM network inhibition for each listed record.
1. O=C(NC1CSC/C1=N\O)c1ccccc1 (stereo unspecified)
2. CCCCSC1=C(C#N)C(c2ccccc2C)CC(=O)N1 (stereo unspecified)
3. COc1cccc(C2C(C(=O)OCc3ccccc3)=C(C)Nc3ncnn32)c1OC (stereo unspecified)
4. Cc1cc(NC(=O)CSc2nnc(Cc3cccn3C)n2CCc2ccccc2)no1
5. COc1ccc(N2C(=O)C3CCCN3C2c2cc(OC)c(OC)cc2OC)cc1 (stereo unspecified)
6. Cc1csc(NC(=O)C(CC(C)C)NS(=O)(=O)c2ccc3c(c2)oc(=O)n3C)n1 (stereo unspecified)
7. CC(=O)Nc1ccc2nc(-c3cccs3)[nH]c2c1

[1.84, 5.84, 4.9, 7.83, 7.38, 2.74, 4.66]

---

test: growth suppression of beta-catenin knockout HCT116, pilot screen, human colon tumor cells (AID 823); details: CellTiter-Glo, 60 h, at 10 µM, stronger effect = lower value;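 note: 0% = wells killed by 20 µM Hyamine and 100% = untreated DMSO cell wells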
Records with an inconclusive call do not appear.
Please go through the items and note down their viability.
Answers are plain numbers, in %.

Would you please look over these solved cases?
CC(=O)c1sc(N2C(=O)c3oc4ccccc4c(=O)c3C2c2ccc(C)o2)nc1C (stereo unspecified) = 96.1
CN1C(=O)/C(=C2\SC(=S)N(C(CCC(=O)O)C(=O)O)C2=O)c2ccccc21 (stereo unspecified) = 107

Your task in this section: give viability for each listed record.
1. O=C(C1CCC(=O)N1Cc1cccnc1)N1CCN(c2ccc(F)cc2)CC1 (stereo unspecified)
2. C=CCn1c(SCC(=O)N2CCOCC2)nc(O)c(Cc2ccccc2)c1=O
3. O=C(C1=C(O)C(=O)N(CCN2CCOCC2)C1c1ccncc1)c1ccco1 (stereo unspecified)

1: 90.1; 2: 99.4; 3: 98.3

Your task in this section: give viability for each listed record.
1. CC(=O)NC(CCS(C)(=O)=O)C(=O)Nc1cc(C)ccc1C (stereo unspecified)
2. Cc1ccc(S(=O)(=O)N2CCC(C(=O)N[C@@H](C)C(=O)NC3CCCCC3)CC2)cc1
3. CCC1CCCCN1Cc1nc2c(c(=O)n(C)c(=O)n2C)n1Cc1ccccc1 (stereo unspecified)
4. CC1CCc2nn(CC(=O)NCCCN3CCCCC3)cc2C1 (stereo unspecified)

1. 98.5
2. 97.7
3. 75.3
4. 105

Your task in this section: give viability for each listed record.
1. O=S(=O)(NCCO)c1cccc2cccnc12
2. COc1ccc(-c2noc(Cc3cccs3)n2)cc1

94
102

---

assay: Restrictive medium S. cerevisiae growth inhibition, OD615, pilot screen of yeast lifespan reduction project, restrictive growth control (AID 706); conditions: OD615, 48 h, at 10 µM, stronger effect = higher value;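 note: modified DeaD lifespan yeast strain shifted to restrictive glucose medium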
Parameter measured: growth inhibition (%)
Numbers only, in %.

CCOC(=O)N1CCN(C(=O)c2oc(=O)c3ccccc3c2-c2ccc(C)cc2)CC1 = -8.23
O=C1c2ccccc2C(=O)N1CCCc1nc(-c2ccc(Cl)cc2)no1 = -5.26
COc1ccccc1N1CCN(CC(=O)c2ccc3ccn(C(C)=O)c3c2)CC1 = -12.2
CSc1ccccc1NC(=O)c1cnc2scc(C)n2c1=O = 3.44
CCOC(=O)N1CCC(N2C(=O)c3ccc(C(=O)NCc4ccc(F)cc4)cc3C2=O)CC1 = -4.59

Your task in this section: give growth inhibition for each listed record.
1. CCOC1OC2C(CO)OC(n3cnc4c(N)ncnc43)C2O1 (stereo not given)
2. CCCOC(=O)c1ccc(-n2nnnc2SCC(=O)N2CCCCC2)cc1
3. CN(C)c1ccc(C2N(c3ccc(Cl)cc3)C(=O)C3CCCN32)cc1 (stereo not given)
4. CCn1cc(C(=O)Nc2ccc3c(c2)OCCO3)c2cc(OC)c(OC)cc2c1=O
5. COc1ccc(C(=O)c2coc3ccc(O)c(CN(C)C)c23)cc1

10.6
-5.64
6.78
2.6
-11.6
